Target: CXCR2 receptor (Homo sapiens, UniProt P25025)
Sequence (P25025 1-360): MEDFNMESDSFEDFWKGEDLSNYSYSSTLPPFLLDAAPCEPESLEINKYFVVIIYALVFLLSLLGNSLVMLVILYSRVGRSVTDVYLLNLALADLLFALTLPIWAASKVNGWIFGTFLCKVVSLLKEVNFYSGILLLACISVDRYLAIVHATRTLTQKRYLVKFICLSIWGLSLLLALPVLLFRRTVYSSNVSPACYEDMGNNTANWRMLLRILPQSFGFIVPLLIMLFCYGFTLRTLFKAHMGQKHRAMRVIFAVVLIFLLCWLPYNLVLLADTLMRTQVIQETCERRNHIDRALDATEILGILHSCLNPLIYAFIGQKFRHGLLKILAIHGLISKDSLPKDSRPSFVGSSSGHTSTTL
Experiment: CXCR2 Tango assay
Assay type: cell-based
Parameters: fused on or other part: TEV protease cleavage site and Gal4-VP16 transcription factor fused to the receptor (Invitrogen Tango construct); no part of the key
Settings: Tango reporter gene, 80 nM hCXCL1; read-out: pIC50 against the CXCR2 receptor (converted)
I'd be grateful if you could share measured IC50 for these entries.
Just the number in nM, nothing appended.

Qu. Item CC1=CCC[C@H]1NC(=O)Nc1ccc(C#N)c(S(=O)(=O)C(C)(C)C)c1O [Compound of Formula (F)] : provide IC50
Ans. 0.2

Qu. Look up and state reported IC50 for CC1=CCC[C@H]1NC(=O)Nc1ccc(Cl)c(S(=O)(=O)C(C)(F)F)c1O [Compound of Formula (I)]
Ans. 0.398

Qu. Output IC50 of CC1=CCC[C@H]1NC(=O)Nc1ccc(Cl)c(S(=O)(=O)[C@]2(C)CCOC2)c1O [Compound of Formula (C)]
Ans. 1

Qu. Complete the entry with IC50 for CC1=CCC[C@H]1NC(=O)Nc1ccc(Cl)c(S(=O)(=O)[C@@]2(C)CCOC2)c1O [Compound of Formula (J)]
Ans. 1

Qu. Read off the recorded IC50 for CC1=CCC[C@H]1NC(=O)Nc1ccc(Cl)c(S(=O)(=O)[C@H]2C[C@H](N(C)C)C2)c1O [Compound of Formula (H)]
Ans. 1

Qu. Identify measured IC50 corresponding to CN1CCC(C)(S(=O)(=O)c2c(Cl)ccc(NC(=O)Nc3cccc(F)c3Cl)c2O)CC1 [Compound of Formula (D)]
Ans. 1.26

Qu. Quick one: give measured IC50 for O=C(Nc1ccc(Cl)c(S(=O)(=O)N2CCNCC2)c1O)Nc1cccc(F)c1Cl [Compound of Formula (A)]
Ans. 0.631

Qu. Determine from records and report IC50 for CC1(S(=O)(=O)c2c(Cl)ccc(NC(=O)N[C@@H]3CCC=C3Cl)c2O)CCOCC1 [Compound of Formula (E)]
Ans. 1.58

Qu. Give recorded IC50. CC1=CCC[C@H]1NC(=O)Nc1ccc(Cl)c(S(=O)(=O)[C@H]2C[C@H](N3CCCC3)C2)c1O [Compound of Formula (G)]
Ans. 1
